test: Solubility of glycerol-containing formulations (post vortexing, 30 min and overnight at 18° C.); assay type: physicochemical; details: glycerol-containing formulation, aqueous with cosolvent or surfactant or cyclodextrin, compound 2 mg/mL; 20% glycerol; post vortexing; read-out: Solubility of glycerol-containing formulations post vortexing, 20%
metric: solubility at 30 s

# example entries with known answers
CCN1/C(=C/C(C)=C/c2sc3ccccc3[n+]2CC)Sc2ccccc21 ... < 2000 µg/mL
CCN1/C(=C/C=C/c2sc3ccccc3[n+]2CC)Sc2ccccc21 [JAC-B1, 3′,3′-Diethylthiacarbocyanine iodide] ... < 2000 µg/mL

Next compound, please.
Form field: reported solubility at 30 s of CCN1/C(=C/C=C/c2oc3ccccc3[n+]2CC)Oc2ccccc21 [JAC-R1, 3′,3′-Diethyloxacarbocyanine iodide]
< 2000 µg/mL

Entry source: patent US20230150960A1
